Biological target: Sigma non-opioid intracellular receptor 1 (Homo sapiens)
Sequence (Q99720 whole entry): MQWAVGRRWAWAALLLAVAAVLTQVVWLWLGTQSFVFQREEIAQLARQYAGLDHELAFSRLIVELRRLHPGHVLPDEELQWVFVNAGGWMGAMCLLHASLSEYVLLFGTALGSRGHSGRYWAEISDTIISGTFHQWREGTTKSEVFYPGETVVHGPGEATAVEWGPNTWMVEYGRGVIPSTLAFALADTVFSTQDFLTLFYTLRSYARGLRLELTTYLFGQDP
Assay: DRUGMATRIX: Sigma1 radioligand binding (ligand: [3H] Haloperidol)
Type: cell membranes, Jurkat, Membrane
Settings: jurkat; Not Active = under 50% inhibition at 10 µM
quantityName: IC50

molecule	studySystem	resultValue
CC(=O)O[C@H]1C[C@@H]2CC[C@@H]3[C@H](CC[C@@]4(C)[C@H]3C[C@H]([N+]3(C)CCCCC3)[C@@H]4OC(C)=O)[C@@]2(C)C[C@@H]1N1CCCCC1.[Br-] [VECURONIUM BROMIDE]	Sigma non-opioid intracellular receptor 1 (Homo sapiens)	Not Active
O=C(O)c1cc(=O)c2c(OCC(O)COc3cccc4oc(C(=O)O)cc(=O)c34)cccc2o1	Sigma non-opioid intracellular receptor 1 (Homo sapiens)	Not Active
C#C[C@]1(O)CC[C@H]2[C@@H]3CCc4cc(O)ccc4[C@H]3CC[C@@]21C	Sigma non-opioid intracellular receptor 1 (Homo sapiens)	Not Active

----------
Molecular target: D(4) dopamine receptor (Homo sapiens, UniProt P21917)
Sequence (P21917 whole entry): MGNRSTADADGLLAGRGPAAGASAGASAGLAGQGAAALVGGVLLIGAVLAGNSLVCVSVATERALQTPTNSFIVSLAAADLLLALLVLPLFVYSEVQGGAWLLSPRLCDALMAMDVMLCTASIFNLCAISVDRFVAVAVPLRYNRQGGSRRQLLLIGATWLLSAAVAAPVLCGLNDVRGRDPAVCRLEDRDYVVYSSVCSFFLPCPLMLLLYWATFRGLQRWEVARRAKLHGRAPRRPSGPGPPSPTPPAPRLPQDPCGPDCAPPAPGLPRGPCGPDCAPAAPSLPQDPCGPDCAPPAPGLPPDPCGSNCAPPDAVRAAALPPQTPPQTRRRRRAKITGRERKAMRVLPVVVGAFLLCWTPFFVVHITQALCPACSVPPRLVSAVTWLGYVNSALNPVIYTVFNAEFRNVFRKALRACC
Assay: DRUGMATRIX: Dopamine D4.2 radioligand binding (ligand: [3H] Spiperone)
Type: cell membranes, CHO-K1, Membrane
Details: Not Active = under 50% inhibition at 10 µM; read-out: IC50
quantityName: pIC50
Value format note: pIC50 is -log10 of concentration (mol/L); just state the number.

Please list pIC50 recorded for the compound OCCN1CCN(CCCN2c3ccccc3Sc3ccc(C(F)(F)F)cc32)CC1
5.23

----------
Target: Substance-K receptor (Homo sapiens, UniProt P21452); further: in other assays of this panel Not Active means under 50% inhibition at 10 µM
Sequence (P21452 whole entry): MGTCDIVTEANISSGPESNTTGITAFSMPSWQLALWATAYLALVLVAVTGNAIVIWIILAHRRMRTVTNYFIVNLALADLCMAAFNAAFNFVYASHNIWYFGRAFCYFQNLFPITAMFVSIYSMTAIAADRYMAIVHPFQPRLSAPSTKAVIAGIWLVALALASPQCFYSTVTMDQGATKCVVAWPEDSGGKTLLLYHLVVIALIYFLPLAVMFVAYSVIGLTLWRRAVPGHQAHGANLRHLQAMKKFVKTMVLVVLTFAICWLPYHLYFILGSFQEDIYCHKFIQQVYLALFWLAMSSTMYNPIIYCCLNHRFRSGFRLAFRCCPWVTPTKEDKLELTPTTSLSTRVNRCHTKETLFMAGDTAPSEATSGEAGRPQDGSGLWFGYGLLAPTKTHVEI
Assay type: cell membranes, CHO, Membrane
Details: read-out: IC50
Exercise: state measured pIC50 for each of the molecules provided.
# log scale: pIC50 equals minus log10 of the concentration in mol/L

Given the molecule CC[C@H](C)C(=O)O[C@H]1C[C@@H](C)C=C2C=C[C@H](C)[C@H](CC[C@@H]3C[C@@H](O)CC(=O)O3)[C@H]21 [LOVASTATIN] , write its reported pIC50.
4.55

Please report pIC50 for the following molecule: OCCN1CCN(CCCN2c3ccccc3Sc3ccc(C(F)(F)F)cc32)CC1 [FLUPHENAZINE]
4.65

Please report the measured pIC50 for C#C[C@]1(O)CC[C@H]2[C@@H]3CCC4=Cc5oncc5C[C@]4(C)[C@H]3CC[C@@]21C [DANAZOL]
4.58

----------
Experiment: DRUGMATRIX: Sodium/nucleoside co-transporter radioligand binding (ligand: nitrobenzylthioinosine)
Format: cell membranes, Cavia porcellus, Dunkin-Hartley, Cerebral cortex, Membrane
Settings: Not Active = under 50% inhibition at 10 µM
quantityName: IC50

molecule	IC50
Cc1c(N(C)CS(=O)(=O)[O-])c(=O)n(-c2ccccc2)n1C.[Na+] [DIPYRONE SODIUM]	Not Active
N=C(N)N/N=C/c1c(Cl)cccc1Cl	Not Active
CC(C(=O)O)c1ccc(-c2ccccc2)c(F)c1 (stereo not drawn)	Not Active
CC[C@H]1OC(=O)[C@H](C)[C@@H](O[C@H]2C[C@@](C)(OC)[C@@H](O)[C@H](C)O2)[C@H](C)[C@@H](O[C@@H]2O[C@H](C)C[C@H](N(C)C)[C@H]2O)[C@](C)(O)C[C@@H](C)CN(C)[C@H](C)[C@@H](O)[C@]1(C)O	Not Active

State its IC50 for this molecule: CS(=O)(=O)OCCCCOS(C)(=O)=O
Not Active

Please list IC50 recorded for the molecule CNC(=C[N+](=O)[O-])NCCSCc1csc(CN(C)C)n1
Not Active

Using the record for C#C[C@]1(O)CC[C@H]2[C@@H]3CCc4cc(O)ccc4[C@H]3CC[C@@]21C , state its measured IC50.
Not Active

Supply reported IC50 belonging to this molecule: CCc1oc2ccccc2c1C(=O)c1cc(Br)c(O)c(Br)c1
Not Active

----------
Molecular target: Glucocorticoid receptor (Homo sapiens, UniProt P04150); further: in other assays of this panel Not Active means under 50% inhibition at 10 µM
Sequence (P04150 whole entry): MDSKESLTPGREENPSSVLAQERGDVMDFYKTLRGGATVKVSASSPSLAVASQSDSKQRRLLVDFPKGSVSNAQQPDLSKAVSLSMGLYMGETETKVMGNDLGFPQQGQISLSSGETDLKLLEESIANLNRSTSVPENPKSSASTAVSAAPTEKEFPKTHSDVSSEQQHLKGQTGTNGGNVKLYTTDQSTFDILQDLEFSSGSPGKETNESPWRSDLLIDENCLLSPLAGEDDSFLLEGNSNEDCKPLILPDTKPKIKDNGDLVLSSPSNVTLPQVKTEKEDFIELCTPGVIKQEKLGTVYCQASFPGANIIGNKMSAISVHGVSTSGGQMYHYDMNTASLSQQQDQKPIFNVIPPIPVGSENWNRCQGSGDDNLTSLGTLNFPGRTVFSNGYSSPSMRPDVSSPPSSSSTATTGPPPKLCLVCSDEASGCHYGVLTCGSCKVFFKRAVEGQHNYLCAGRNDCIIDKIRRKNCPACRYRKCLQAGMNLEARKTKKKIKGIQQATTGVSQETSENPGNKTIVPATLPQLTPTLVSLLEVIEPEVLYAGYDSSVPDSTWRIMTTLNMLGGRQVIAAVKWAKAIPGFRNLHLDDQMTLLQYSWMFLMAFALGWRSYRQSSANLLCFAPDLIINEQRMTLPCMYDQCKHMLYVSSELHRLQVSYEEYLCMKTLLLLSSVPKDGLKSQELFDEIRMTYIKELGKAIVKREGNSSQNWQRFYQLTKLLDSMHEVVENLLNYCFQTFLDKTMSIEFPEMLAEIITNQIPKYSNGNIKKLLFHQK
Assay: biochemical
quantityName: pKi
Would you please state pKi, meaning minus log10 of the concentration in mol/L, as a bare number?

Provide pKi, tested on Glucocorticoid receptor (Homo sapiens, UniProt P04150), for C[C@]12CC[C@H]3[C@@H](CCC4=CC(=O)CC[C@@]43C)[C@@H]1CC[C@@H]2O [TESTOSTERONE] . Further: in other assays of this panel Not Active means under 50% inhibition at 10 µM.
5.84

Write down measured pKi (Glucocorticoid receptor (Homo sapiens, UniProt P04150)) for this compound. C#C[C@]1(O)CC[C@H]2[C@@H]3CCC4=Cc5oncc5C[C@]4(C)[C@H]3CC[C@@]21C [DANAZOL]
5.71

Enter recorded pKi with Glucocorticoid receptor (Homo sapiens, UniProt P04150) for C#C[C@]1(O)CC[C@H]2[C@@H]3CCc4cc(O)ccc4[C@H]3CC[C@@]21C [ETHINYL ESTRADIOL] here.
6.11

# lookup: Glucocorticoid receptor (Homo sapiens, UniProt P04150) pKi, key = CC(=O)O[C@]1(C(C)=O)CC[C@H]2[C@@H]3C=C(C)C4=CC(=O)CC[C@]4(C)[C@H]3CC[C@@]21C [MEGESTROL ACETATE]
8.06

----------
Experiment: DRUGMATRIX: GABAA, Flunitrazepam, Central radioligand binding (ligand: [3H] Flunitrazepam)
Format: cell membranes, Rattus norvegicus, Wistar, Brain, Membrane
Conditions: Not Active = under 50% inhibition at 10 µM
quantityName: IC50

Here are 8 compounds together with their reported answers.
compound	IC50
COc1ccc(CN2CCNCC2)c(OC)c1OC [TRIMETAZIDINE]	Not Active
Cc1cn([C@H]2C[C@H](N=[N+]=[N-])[C@@H](CO)O2)c(=O)[nH]c1=O [ZIDOVUDINE]	Not Active
CN(Cc1cnc2nc(N)nc(N)c2n1)c1ccc(C(=O)N[C@@H](CCC(=O)O)C(=O)O)cc1 [METHOTREXATE]	Not Active
CC[C@]1(O)CC[C@H]2[C@@H]3CCC4=CCCC[C@@H]4[C@H]3CC[C@@]21C	Not Active
CC(C(=O)O)c1ccc(-c2ccccc2)c(F)c1 (stereo unspecified) [FLURBIPROFEN]	Not Active
CNS(=O)(=O)Cc1ccc2[nH]cc(CCN(C)C)c2c1	Not Active
Cc1cccc(Nc2ccccc2C(=O)O)c1C [MEFENAMIC ACID]	Not Active
COc1ncnc(NS(=O)(=O)c2ccc(N)cc2)c1OC [SULFADOXINE]	Not Active

Let me know recorded IC50 for CC[C@H]1OC(=O)[C@H](C)[C@@H](O[C@H]2C[C@@](C)(OC)[C@@H](O)[C@H](C)O2)[C@H](C)[C@@H](O[C@@H]2O[C@H](C)C[C@H](N(C)C)[C@H]2O)[C@](C)(O)C[C@@H](C)CN(C)[C@H](C)[C@@H](O)[C@]1(C)O [AZITHROMYCIN] , thanks.
Not Active

Return the recorded IC50 value; entry: CCC[C@@H]1C[C@@H](C(=O)N[C@@H]([C@H]2O[C@H](SC)[C@H](O)[C@@H](O)[C@H]2O)[C@H](C)Cl)N(C)C1 [CLINDAMYCIN]
Not Active

Supply IC50 value. Item: Nc1nc(N)nc(NC2CC2)n1 [CYROMAZINE]
Not Active

Kindly indicate its recorded IC50. Item: Cc1cn[nH]c1 [FOMEPIZOLE]
Not Active

Give recorded IC50. CO[C@@]1(NC(=O)CSCC#N)C(=O)N2C(C(=O)O)=C(CSc3nnnn3C)CS[C@@H]21 [CEFMETAZOLE]
Not Active

Consider the compound CN1C[C@H](C(=O)N[C@]2(C)O[C@@]3(O)[C@@H]4CCCN4C(=O)[C@H](Cc4ccccc4)N3C2=O)C[C@@H]2c3cccc4[nH]cc(c34)C[C@H]21 [DIHYDROERGOTAMINE] . State its measured IC50.
Not Active

Please report the measured IC50 for CCCCC1C(=O)N(c2ccccc2)N(c2ccccc2)C1=O [PHENYLBUTAZONE]
Not Active

Consider the compound NC(=O)N1c2ccccc2C=Cc2ccccc21 [CARBAMAZEPINE] . State its measured IC50.
Not Active

----------
Biological target: Neutrophil elastase (Homo sapiens); further: in other assays of this panel Not Active means under 50% inhibition at 10 µM;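 further: inhibition of neutrophil elastase enzyme activity, measured with a p-nitroanilide-linked peptide substrate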
Sequence (P08246 whole entry): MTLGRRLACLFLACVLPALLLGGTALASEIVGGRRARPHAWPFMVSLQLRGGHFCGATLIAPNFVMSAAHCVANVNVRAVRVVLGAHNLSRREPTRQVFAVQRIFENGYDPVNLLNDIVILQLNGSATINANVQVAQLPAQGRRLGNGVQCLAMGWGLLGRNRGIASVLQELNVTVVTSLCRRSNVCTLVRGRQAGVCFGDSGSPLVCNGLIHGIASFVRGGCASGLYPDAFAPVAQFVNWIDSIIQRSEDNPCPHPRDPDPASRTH
Format: tissue-based
quantityName: IC50

molecule	resultValue
Cc1c(F)c(N2CCNC(C)C2)cc2c1c(=O)c(C(=O)O)cn2C1CC1 (stereo not drawn)	Not Active
CC1=C(CC(=O)O)c2cc(F)ccc2/C1=C\c1ccc(S(C)(=O)=O)cc1	Not Active
CCC(=O)O[C@H]1[C@H](O[C@@H]2[C@@H](C)[C@H](O[C@H]3C[C@@](C)(OC)[C@@H](O)[C@H](C)O3)[C@@H](C)C(=O)O[C@H](CC)[C@@](C)(O)[C@H](O)[C@@H](C)C(=O)[C@H](C)C[C@@]2(C)O)O[C@H](C)C[C@@H]1N(C)C [ERYTHROMYCIN PROPIONATE]	Not Active

Origin of measurements: ChEMBL document CHEMBL1909046
